Just for reference, patent US20100158980A1 is where these values come from.

# ASSAY_DETAILS: physchem
# TEST_PARAMETERS: aqueous buffer
Counter-ions that a name gives are not always drawn.
MEASURED_ATTRIBUTE: solubility

Record excerpt, results attached:
- COMPOUND: "C[C@@H]1C[C@H]2[C@@H]3CCC4=CC(=O)C=C[C@]4(C)[C@@]3(F)[C@@H](O)C[C@]2(C)[C@@]1(O)C(=O)CO"
  solubility: "< 300 µg/mL"
- COMPOUND: "CC(C)(C)NC[C@H](O)COc1nsnc1N1CCOCC1 [timolol maleate]"
  solubility: "> 1000 µg/mL"
- COMPOUND: "CC(=O)Nc1nnc(S(N)(=O)=O)s1 [acetazolamide]"
  solubility: "> 1000 µg/mL"
- COMPOUND: "CC[C@H](C)C(=O)O[C@H]1C[C@@H](C)C=C2C=C[C@H](C)[C@H](CC[C@@H]3C[C@@H](O)CC(=O)O3)[C@H]21"
  solubility: "< 300 µg/mL"
- COMPOUND: "C=C(CC)C(=O)c1ccc(OCC(=O)O)c(Cl)c1Cl [ethacrynic acid sodium salt]"
  solubility: "> 1000 µg/mL"

Q) Report solubility for CCN[C@H]1C[C@H](C)S(=O)(=O)c2sc(S(N)(=O)=O)cc21 [dorzolamide HCl]
A) > 1000 µg/mL
